# Test system: A375P F11s tumor cells
# ASSAY_EXPLANATION: Method C: Cell Growth Inhibition Assay (CellTiter-Glo), A375P F11s
# Assay type: cell-based
# EXPERIMENTAL_CONTEXT: Homo sapiens, 72 h, 3 days, 4-parameter fit
# Method: Human breast tumor cells (BT474) were cultured in RPMI (Mediatech 50-011-PB), containing 10% FBS (JRH Biosciences 12176) and 1% penicillin-streptomycin (Invitrogen 15140). […] Cells were harvested using trypsin/EDTA (Invitrogen 25200), counted using an haemocytometer, and plated. […] Total ATP was measured (as a surrogate estimate of cell number) using CellTiter-Glo® reagent (Promega G7571). […] Percent inhibition of cell growth was calculated relative to DMSO vehicle-treated control wells. […]
Counter-ions that a name gives are not always drawn.
MEASURED_ATTRIBUTE: IC50

See these solved cases before continuing.
COMPOUND: Nc1nc(-c2cccc(NC(=O)c3c(F)cccc3F)c2)c(-c2ccnc(Nc3cccc(CN4CCCC4)c3)n2)s1
IC50: 100 to 1000 nM

COMPOUND: CN(C)C1Cc2ccc(Nc3nccc(-c4sc(N)nc4-c4cccc(NC(=O)c5c(F)cccc5F)c4)n3)cc2C1 (centres unmarked)
IC50: 100 to 1000 nM

COMPOUND: COc1ccc(Nc2nccc(-c3sc(NC4CC4)nc3-c3cccc(NC(=O)c4c(F)cccc4F)c3)n2)cc1OCCN(C)C
IC50: 100 to 1000 nM

COMPOUND: CN(C)CCOc1ccc(Nc2nccc(-c3sc(N4CCCCC4)nc3-c3cccc(NC(=O)c4c(F)cccc4F)c3)n2)cc1Cl
IC50: > 1000 nM

COMPOUND: O=C(Nc1cccc(-c2nc(NCCCN3CCOCC3)sc2-c2ccnc(Nc3cccc(CN4CCCC4)c3)n2)c1)c1c(F)cccc1F
IC50: 100 to 1000 nM

Need IC50 for each of these compounds.
1. CN(C)c1nc(-c2cccc(NC(=O)c3c(F)cccc3F)c2)c(-c2ccnc(Nc3ccc(OCCN4CCCC4)c(Cl)c3)n2)s1
2. CCc1nc(-c2cccc(NC(=O)c3c(F)cccc3F)c2)c(-c2ccnc(Nc3ccc(N4CCOCC4)nc3)n2)s1 [Example 118, trifluoroacetate]
3. CCc1nc(-c2cccc(NC(=O)c3c(F)cccc3F)c2)c(-c2ccnc(Nc3cccc(CN4CCCC4)c3)n2)s1
4. CN(C)Cc1cccc(Nc2nccc(-c3scnc3-c3cccc(NC(=O)c4c(F)cccc4F)c3)n2)c1
5. CC(C)c1nc(-c2cccc(NC(=O)c3c(F)cccc3F)c2)c(-c2ccnc(Nc3ccc(OCCN4CCCC4)c(Cl)c3)n2)s1
6. COc1ccc(Nc2nccc(-c3sc(N)nc3-c3cccc(NC(=O)c4c(F)cccc4F)c3)n2)cc1N1CCN(C)CC1 [Example 11, trifluoroacetate]

1: 100 to 1000 nM; 2: > 1000 nM; 3: > 1000 nM; 4: 100 to 1000 nM; 5: 100 to 1000 nM; 6: 100 to 1000 nM

Need IC50 for each of these compounds.
1. CN(C)CCOc1ccc(Nc2nccc(-c3sc(N)nc3-c3cc(NC(=O)c4c(F)cccc4F)ccc3F)n2)cc1Cl
2. NS(=O)(=O)CCc1cccc(Nc2nccc(-c3scnc3-c3cccc(NC(=O)c4c(F)cccc4F)c3)n2)c1
3. Cc1nc(-c2cccc(NC(=O)c3cc(F)ccc3F)c2)c(-c2ccnc(Nc3ccc(OCCN(C)C)c(F)c3)n2)s1

100 to 1000 nM
100 to 1000 nM
> 1000 nM

----------
# TARGET_UNDER_TEST: ErbB2 (Homo sapiens)
# Construct: made in house; host or cells: baculovirus expression system
# Sequence (P04626 23-1255): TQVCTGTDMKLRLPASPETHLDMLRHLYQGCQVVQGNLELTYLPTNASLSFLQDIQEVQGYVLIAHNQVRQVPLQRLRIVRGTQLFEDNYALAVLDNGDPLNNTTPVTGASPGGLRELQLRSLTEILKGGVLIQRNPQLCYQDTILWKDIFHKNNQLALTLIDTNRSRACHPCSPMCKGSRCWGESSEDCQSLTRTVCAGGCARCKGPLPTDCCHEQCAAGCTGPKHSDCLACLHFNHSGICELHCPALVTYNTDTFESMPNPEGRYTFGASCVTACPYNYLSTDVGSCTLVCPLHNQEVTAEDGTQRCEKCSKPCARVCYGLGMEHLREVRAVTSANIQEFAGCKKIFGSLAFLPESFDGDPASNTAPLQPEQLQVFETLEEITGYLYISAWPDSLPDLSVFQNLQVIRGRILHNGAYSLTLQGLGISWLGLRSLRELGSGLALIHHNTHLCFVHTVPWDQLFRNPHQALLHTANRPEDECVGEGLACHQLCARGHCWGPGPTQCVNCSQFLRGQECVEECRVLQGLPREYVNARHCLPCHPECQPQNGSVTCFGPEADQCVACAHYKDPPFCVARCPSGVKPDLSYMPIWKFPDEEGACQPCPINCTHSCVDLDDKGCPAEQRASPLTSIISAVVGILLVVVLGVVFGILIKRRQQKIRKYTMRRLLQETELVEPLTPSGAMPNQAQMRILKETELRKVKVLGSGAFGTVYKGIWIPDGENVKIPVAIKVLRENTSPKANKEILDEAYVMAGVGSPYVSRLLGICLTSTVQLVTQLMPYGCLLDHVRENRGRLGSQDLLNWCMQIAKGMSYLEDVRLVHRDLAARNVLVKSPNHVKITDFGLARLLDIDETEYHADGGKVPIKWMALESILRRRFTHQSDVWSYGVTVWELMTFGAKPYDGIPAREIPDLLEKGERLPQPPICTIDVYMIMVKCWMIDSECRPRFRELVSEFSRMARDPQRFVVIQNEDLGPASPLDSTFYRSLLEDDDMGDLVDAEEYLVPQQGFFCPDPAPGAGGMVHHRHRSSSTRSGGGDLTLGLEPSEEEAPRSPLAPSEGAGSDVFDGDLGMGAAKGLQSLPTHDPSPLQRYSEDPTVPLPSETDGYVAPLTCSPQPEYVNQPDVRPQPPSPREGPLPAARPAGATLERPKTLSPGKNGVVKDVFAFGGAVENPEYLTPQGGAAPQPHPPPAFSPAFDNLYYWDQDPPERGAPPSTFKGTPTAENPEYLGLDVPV
# ASSAY_EXPLANATION: ErbB-2 substrate phosphorylation assay (HTRF)
# Assay type: biochemical
# EXPERIMENTAL_CONTEXT: Method (B): Substrate Mix added to compound first, reaction started by adding Enzyme Mix
pIC50: −log10 of the molar value.
MEASURED_ATTRIBUTE: pIC50

See these solved cases before continuing.
COMPOUND: COc1ccc(Nc2nccc(-c3scnc3-c3cccc(NC(=O)c4c(F)cccc4F)c3)n2)cc1F [Example 87]
pIC50: 6.00 to 7.00
--
COMPOUND: O=C(Nc1cccc(-c2ncsc2-c2ccnc(Nc3cccc(F)c3)n2)c1)c1c(F)cccc1F [Example 88]
pIC50: 6.00 to 7.00

Here's the next entry for you.
Value lookup for pIC50; key = O=C(Nc1cccc(-c2ncoc2-c2ccnc(Nc3cccc(F)c3)n2)c1)c1c(F)cccc1F [Example 141]
< 6.00

----------
For each record, write down the corresponding IC50.
# Test system: HN5 tumor cells
# ASSAY_EXPLANATION: Method B: CellTiter-Glo Growth Inhibition Assay, HN5
# Assay type: cell-based
# EXPERIMENTAL_CONTEXT: Homo sapiens, 72 h, 3 days
Structures can show the parent of a compound that is named as a salt.

MOLECULE: O=C(Nc1cccc(-c2nc(NCCCN3CCOCC3)sc2-c2ccnc(Nc3cccc(F)c3)n2)c1)c1c(F)cccc1F [Example 30]
IC50: 0.1 to 1 µM

MOLECULE: CN(C)CCOc1ccc(Nc2nccc(-c3scnc3-c3cccc(NC(=O)c4c(F)cccc4F)c3)n2)cc1Cl [Example 89]
IC50: < 0.1 µM

MOLECULE: CN(C)C1Cc2ccc(Nc3nccc(-c4scnc4-c4cccc(NC(=O)Cc5cccs5)c4)n3)cc2C1 (stereo not shown) [Example 83]
IC50: 0.1 to 1 µM

MOLECULE: Cc1nc(-c2cccc(NC(=O)c3c(F)cccc3F)c2)c(-c2ccnc(Nc3cccc(F)c3)n2)s1 [Example 101]
IC50: < 0.1 µM

MOLECULE: O=C(Cc1cccs1)Nc1cccc(-c2ncsc2-c2ccnc(Nc3ccc4c(c3)OCC(=O)N4)n2)c1 [Example 85, hydrochloride]
IC50: 0.1 to 1 µM

Need IC50 for each of these molecules.
1. Nc1nc(-c2cccc(NC(=O)c3c(F)cccc3F)c2)c(-c2ccnc(Nc3ccc4c(c3)OCC(=O)N4)n2)s1 [Example 9, hydrochloride]
2. Nc1nc(-c2cccc(NC(=O)c3c(F)cccc3F)c2)c(-c2ccnc(Nc3cccc(F)c3)n2)s1 [Example 7]

1: < 0.1 µM; 2: < 0.1 µM

----------
# Test system: HN5 tumor cells
# ASSAY_EXPLANATION: Method C: Cell Growth Inhibition Assay (CellTiter-Glo), HN5
# Format: cell-based
# EXPERIMENTAL_CONTEXT: Homo sapiens, 72 h, 3 days, 4-parameter fit
pIC50: −log10 of the molar value. Where a name gives a salt, the structure may show the parent alone.
MEASURED_ATTRIBUTE: pIC50

See these solved cases before continuing.
MOLECULE: Cc1nc(-c2cccc(NC(=O)c3cccc(C(F)(F)F)c3)c2)c(-c2ccnc(Nc3ccc4c(c3)CN(C)CC4)n2)s1
pIC50: < 6.00
//
MOLECULE: CCNc1nc(-c2cccc(NC(=O)c3c(F)cccc3F)c2)c(-c2ccnc(Nc3ccc(OCCN(C)C)c(Cl)c3)n2)s1
pIC50: 6.00 to 7.00
//
MOLECULE: CN(C)CCOc1cccc(Nc2nccc(-c3sc(N)nc3-c3cccc(NC(=O)c4c(F)cccc4F)c3)n2)c1
pIC50: > 7.00
//
MOLECULE: CCc1nc(-c2cccc(NC(=O)c3c(F)cccc3F)c2)c(-c2ccnc(Nc3ccc(N4CCOCC4)nc3)n2)s1 [Example 118, trifluoroacetate]
pIC50: 6.00 to 7.00
//
MOLECULE: CCc1nc(-c2cccc(NC(=O)c3c(F)cccc3F)c2)c(-c2ccnc(Nc3cccc(CN4CCCC4)c3)n2)s1
pIC50: 6.00 to 7.00

Need pIC50 for each of these molecules.
1. COc1ccc(Nc2nccc(-c3sc(N)nc3-c3cccc(NC(=O)c4c(F)cccc4F)c3)n2)cc1N1CCN(C)CC1 [Example 11, trifluoroacetate]
2. CN(C)CCOc1ccc(Nc2nccc(-c3sc(-c4ccc(O)cc4)nc3-c3cccc(NC(=O)c4cc(F)ccc4F)c3)n2)cc1Cl
3. CCc1nc(-c2cccc(NC(=O)c3c(F)cccc3F)c2)c(-c2ccnc(Nc3ccc(OCCN4CCCC4)c(Cl)c3)n2)s1
4. Cc1nc(-c2cccc(NC(=O)c3cc(F)ccc3F)c2)c(-c2ccnc(Nc3ccc(OCCN(C)C)c(Cl)c3)n2)o1
5. CN(C)CCOc1ccc(Nc2nccc(-c3sc(-c4ccc(O)cc4)nc3-c3cccc(NC(=O)c4c(F)cccc4F)c3)n2)cc1Cl

1: > 7.00; 2: 6.00 to 7.00; 3: 6.00 to 7.00; 4: 6.00 to 7.00; 5: 6.00 to 7.00

Need pIC50 for each of these molecules.
1. CN1CCc2ccc(Nc3nccc(-c4sc(C5CCNCC5)nc4-c4cccc(NC(=O)c5c(F)cccc5F)c4)n3)cc2C1
2. CN(C)CCOc1ccc(Nc2nccc(-c3sc(N(C)C)nc3-c3cccc(NC(=O)c4c(F)cccc4F)c3)n2)cc1Cl
3. Cc1nc(-c2cccc(NC(=O)c3c(F)cccc3F)c2)c(-c2ccnc(Nc3ccc(OCCN(C)C)c(F)c3)n2)s1
4. CN(C)CCOc1ccc(Nc2nccc(-c3sc(N)nc3-c3cccc(C(=O)Nc4c(F)cccc4F)c3)n2)cc1Cl
5. COCCNc1nc(-c2cccc(NC(=O)c3c(F)cccc3F)c2)c(-c2ccnc(Nc3ccc(OCCN4CCCC4)c(Cl)c3)n2)s1
6. CCc1nc(-c2cccc(NC(=O)c3c(F)cccc3F)c2)c(-c2ccnc(Nc3ccc(OCCN(C)C)c(Cl)c3)n2)s1

1. 6.00 to 7.00
2. 6.00 to 7.00
3. > 7.00
4. 6.00 to 7.00
5. > 7.00
6. 6.00 to 7.00

Need pIC50 for each of these molecules.
1. Cc1nc(-c2cccc(NC(=O)c3ccc(F)cc3)c2)c(-c2ccnc(Nc3ccc(OCCN(C)C)c(Cl)c3)n2)s1
2. CNc1nc(-c2cccc(NC(=O)c3c(F)cccc3F)c2)c(-c2ccnc(Nc3ccc(OCCN(C)C)c(Cl)c3)n2)s1

1: 6.00 to 7.00; 2: > 7.00

Need pIC50 for each of these molecules.
1. CN(C)CCOc1cccc(Nc2nccc(-c3scnc3-c3cccc(NC(=O)Cc4cccs4)c3)n2)c1
2. CCN(CC)CCOc1cccc(Nc2nccc(-c3scnc3-c3cccc(NC(=O)c4cc(F)ccc4F)c3)n2)c1
3. CN(C)C1Cc2ccc(Nc3nccc(-c4sc(N)nc4-c4cccc(NC(=O)c5c(F)cccc5F)c4)n3)cc2C1 (stereo not drawn)
4. COc1ccc(Nc2nccc(-c3sc(NC4CC4)nc3-c3cccc(NC(=O)c4c(F)cccc4F)c3)n2)cc1OCCN(C)C
5. Cc1nc(-c2cccc(NC(=O)c3cc(F)ccc3F)c2)c(-c2ccnc(Nc3ccc(OCCN(C)C)c(F)c3)n2)s1

["< 6.00", "6.00 to 7.00", "> 7.00", "> 7.00", "6.00 to 7.00"]
